Each entry below carries its recorded Bliss excess.
system: NCI-H2818 (Mesothelioma); experiment: Bliss excess, mean over the matrix (fraction); higher = more synergy;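 note: after 72 h of two-drug dosing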
Respond using a number only.

molecule	Bliss excess
N#Cc1cnc(Nc2cc(NC[C@H]3CNCCO3)c(C(F)(F)F)cn2)cn1 [SRA737] + Nc1ccn([C@@H]2O[C@H](CO)[C@@H](O)C2(F)F)c(=O)n1 [Gemcitabine] (first compound max 10 µM, 7x7, partner max 0.3 µM)	0.0002
CN(CCO)CC[C@H](CSc1ccccc1)Nc1ccc(S(=O)(=O)NC(=O)c2ccc(N3CCC([C@@H](O)c4ccccc4-c4ccc(Cl)cc4)CC3)cc2)cc1S(=O)(=O)C(F)(F)F [AZD4320] + Cc1cc2ncnn2cc1Nc1ncc2c(n1)n(C1CCOCC1)c(=O)n2C [AZD7648] (first compound max 1 µM, 7x7, partner max 10 µM)	-0.0715
Cn1cnc2c(F)c(Nc3ccc(Br)cc3Cl)c(C(=O)NOCCO)cc21 [Selumetinib] + CC(C)n1c(=O)n(C)c2cnc3cc(F)c(-c4ccc(OCCCN5CCCCC5)nc4)cc3c21 [AZD1390] (first compound max 10 µM, 7x7, partner max 0.3 µM)	-0.0237
CN(CCO)CC[C@H](CSc1ccccc1)Nc1ccc(S(=O)(=O)NC(=O)c2ccc(N3CCC([C@@H](O)c4ccccc4-c4ccc(Cl)cc4)CC3)cc2)cc1S(=O)(=O)C(F)(F)F [AZD4320] + C[C@@H](Nc1cc(F)cc(F)c1)c1cc(C(=O)N(C)C)cc2c(=O)cc(N3CCOCC3)oc12 [AZD8186] (first compound max 1 µM, 7x7, partner max 3 µM)	-0.0232

GET /values?readout=Bliss excess&item= CS(=O)(=O)CCNCc1ccc(-c2ccc3ncnc(Nc4ccc(OCc5cccc(F)c5)c(Cl)c4)c3c2)o1 [Lapatinib] + NC1(c2ccc(-c3nc4ccn5c(=O)[nH]nc5c4cc3-c3ccccc3)cc2)CCC1 [MK-2206] (first compound max 10 µM, 7x7, partner max 10 µM)
-0.0155

# lookup: Bliss excess of NC1(C(=O)N[C@@H](CCO)c2ccc(Cl)cc2)CCN(c2ncnc3[nH]ccc23)CC1 [Capivasertib] + CCN(CCO)CCCOc1ccc2c(Nc3cc(CC(=O)Nc4cccc(F)c4)[nH]n3)ncnc2c1 [AZD2811] (first compound max 10 µM, 7x7, partner max 1 µM)
-0.0676

Fill in: Bliss excess of Cc1nc(-c2cn3c(n2)-c2ccc(-c4cnn(C(C)(C)C(N)=O)c4)cc2OCC3)n(C(C)C)n1 [Taselisib] + O=C(Nc1ccc2[nH]nc(-c3ccncc3)c2c1)[C@@H]1CCN(CC(=O)N2CCN(c3ccc(-c4ncccn4)cc3)CC2)C1 [SCH772984] (first compound max 10 µM, 7x7, partner max 5 µM) is ___
0.0096

---

system: KARPAS-45 (T-Lymphoblastic Leukemia); assay: combination Emax (second highest fraction inhibited in the dose matrix, 72 h); higher = more inhibition; extreme values may be limits of the assay
assay.readout: combination Emax
Field format: numeric only.

Here are 2 compounds together with their reported answers.
compound	combination Emax
NC1(C(=O)N[C@@H](CCO)c2ccc(Cl)cc2)CCN(c2ncnc3[nH]ccc23)CC1 [Capivasertib] + CC(C)n1c(=O)n(C)c2cnc3cc(F)c(-c4ccc(OCCCN5CCCCC5)nc4)cc3c21 [AZD1390] (first compound max 10 µM, 7x7, partner max 0.3 µM)	0.581
Cc1c2c(nn1C)CSCc1cc(n(C)n1)CSc1cc(c3ccccc3c1)OCCCc1c(C(=O)O)n(C)c3c-2c(Cl)ccc13 [AZD5991] + Cc1cc2ncnn2cc1Nc1ncc2c(n1)n(C1CCOCC1)c(=O)n2C [AZD7648] (first compound max 1 µM, 7x7, partner max 10 µM)	0.936

Let us examine a further case.
What value of combination Emax has been reported for the following compound? CN(CCO)CC[C@H](CSc1ccccc1)Nc1ccc(S(=O)(=O)NC(=O)c2ccc(N3CCC([C@@H](O)c4ccccc4-c4ccc(Cl)cc4)CC3)cc2)cc1S(=O)(=O)C(F)(F)F [AZD4320] + C1CN(CCC1(C(=O)N[C@@H](CCO)C2=CC=C(C=C2)Cl)N)C3=NC=NC4=C3C=CN4 [Capivasertib] (first compound max 1 µM, 7x7, partner max 3 µM)
0.987

---

tested on: DND-41 (T-Lymphoblastic Leukemia); experiment: combination Emax (second highest fraction inhibited in the dose matrix, 72 h); higher = more inhibition; extreme values may be limits of the assay
assay.readout: combination Emax
The response must contain the number and no unit.

// solved cases for combination Emax follow
compound	combination Emax
COc1cccc(OCCCN)c1-c1cc(Nc2cnc(C#N)cn2)n[nH]1 [Prexasertib] + O=C(c1cc(Cc2n[nH]c(=O)c3ccccc23)ccc1F)N1CCN(C(=O)C2CC2)CC1 [Olaparib] (first compound max 1 µM, 7x7, partner max 10 µM)	0.85
Cn1cnc2c(F)c(Nc3ccc(Br)cc3Cl)c(C(=O)NOCCO)cc21 [Selumetinib] + C[C@@H]1COCCN1C2=NC(=NC(=C2)C3(CC3)[S@](=N)(=O)C)C4=C5C=CNC5=NC=C4 [AZD6738] (first compound max 10 µM, 7x7, partner max 10 µM)	0.897
CC1(C)CCC(CN2CCN(c3ccc(C(=O)NS(=O)(=O)c4ccc(NCC5CCOCC5)c([N+](=O)[O-])c4)c(Oc4cnc5[nH]ccc5c4)c3)CC2)=C(c2ccc(Cl)cc2)C1 [Venetoclax] + CCN(CCO)CCCOc1ccc2c(Nc3cc(CC(=O)Nc4cccc(F)c4)[nH]n3)ncnc2c1 [AZD2811] (first compound max 1 µM, 7x7, partner max 1 µM)	0.94
COc1cc2ncnc(Nc3ccc(F)c(Cl)c3)c2cc1OCCCN1CCOCC1 [Gefitinib] + CC(C)n1c(=O)n(C)c2cnc3cc(F)c(-c4ccc(OCCCN5CCCCC5)nc4)cc3c21 [AZD1390] (first compound max 10 µM, 7x7, partner max 0.3 µM)	0.115

Fill in the blank: the reported combination Emax of CN(CCO)CC[C@H](CSc1ccccc1)Nc1ccc(S(=O)(=O)NC(=O)c2ccc(N3CCC([C@@H](O)c4ccccc4-c4ccc(Cl)cc4)CC3)cc2)cc1S(=O)(=O)C(F)(F)F [AZD4320] + Nc1ccn([C@@H]2O[C@H](CO)[C@@H](O)C2(F)F)c(=O)n1 [Gemcitabine] (first compound max 1 µM, 7x7, partner max 0.3 µM) is ____.
1

So what's the measured combination Emax for this one? Cc1c2c(nn1C)CSCc1cc(n(C)n1)CSc1cc(c3ccccc3c1)OCCCc1c(C(=O)O)n(C)c3c-2c(Cl)ccc13 [AZD5991] + C1CN(CCC1(C(=O)N[C@@H](CCO)C2=CC=C(C=C2)Cl)N)C3=NC=NC4=C3C=CN4 [Capivasertib] (first compound max 1 µM, 7x7, partner max 3 µM)
0.111

Find the recorded combination Emax belonging to Cc1c2c(nn1C)CSCc1cc(n(C)n1)CSc1cc(c3ccccc3c1)OCCCc1c(C(=O)O)n(C)c3c-2c(Cl)ccc13 [AZD5991] + C=CCn1c(=O)c2cnc(Nc3ccc(N4CCN(C)CC4)cc3)nc2n1-c1cccc(C(C)(C)O)n1 [AZD1775] (first compound max 1 µM, partner max 1 µM) and report it.
0.875

---

Measured combination Emax by item
tested on: SR (Other Blood Carcinomas); assay: combination Emax (second highest fraction inhibited in the dose matrix, 72 h); higher = more inhibition; extreme values may be limits of the assay
Write no unit; give the number alone.

Some solved entries appear below for comparison.
compound	target	combination Emax
CS(=O)(=O)CCNCc1ccc(-c2ccc3ncnc(Nc4ccc(OCc5cccc(F)c5)c(Cl)c4)c3c2)o1 [Lapatinib] + Cn1cnc2c(F)c(Nc3ccc(Br)cc3Cl)c(C(=O)NOCCO)cc21 [Selumetinib] (first compound max 10 µM, 7x7, partner max 10 µM)	SR (Other Blood Carcinomas)	0.707
Cc1c2c(nn1C)CSCc1cc(n(C)n1)CSc1cc(c3ccccc3c1)OCCCc1c(C(=O)O)n(C)c3c-2c(Cl)ccc13 [AZD5991] + C=CCn1c(=O)c2cnc(Nc3ccc(N4CCN(C)CC4)cc3)nc2n1-c1cccc(C(C)(C)O)n1 [AZD1775] (first compound max 1 µM, partner max 1 µM)	SR (Other Blood Carcinomas)	0.923
NC1(C(=O)N[C@@H](CCO)c2ccc(Cl)cc2)CCN(c2ncnc3[nH]ccc23)CC1 [Capivasertib] + CC(=O)c1c(C)c2cnc(Nc3ccc(N4CCNCC4)cn3)nc2n(C2CCCC2)c1=O [Palbociclib] (first compound max 10 µM, 7x7, partner max 10 µM)	SR (Other Blood Carcinomas)	0.844

# query: combination Emax | item C[C@@H](Nc1cc(F)cc(F)c1)c1cc(C(=O)N(C)C)cc2c(=O)cc(N3CCOCC3)oc12 [AZD8186] + CC(=O)c1c(C)c2cnc(Nc3ccc(N4CCNCC4)cn3)nc2n(C2CCCC2)c1=O [Palbociclib] (first compound max 10 µM, 7x7, partner max 10 µM) | system: SR (Other Blood Carcinomas)
0.839
